These entries and their values trace back to patent US10052320B2.

// reported BAF3-FGFR 3 (MIN IL3) 384 well pIC50 for each item listed
# study-target: Ba/F3-FGFR3-transfected cells (Homo sapiens)
# Sequence (P22607 whole entry, change not shown): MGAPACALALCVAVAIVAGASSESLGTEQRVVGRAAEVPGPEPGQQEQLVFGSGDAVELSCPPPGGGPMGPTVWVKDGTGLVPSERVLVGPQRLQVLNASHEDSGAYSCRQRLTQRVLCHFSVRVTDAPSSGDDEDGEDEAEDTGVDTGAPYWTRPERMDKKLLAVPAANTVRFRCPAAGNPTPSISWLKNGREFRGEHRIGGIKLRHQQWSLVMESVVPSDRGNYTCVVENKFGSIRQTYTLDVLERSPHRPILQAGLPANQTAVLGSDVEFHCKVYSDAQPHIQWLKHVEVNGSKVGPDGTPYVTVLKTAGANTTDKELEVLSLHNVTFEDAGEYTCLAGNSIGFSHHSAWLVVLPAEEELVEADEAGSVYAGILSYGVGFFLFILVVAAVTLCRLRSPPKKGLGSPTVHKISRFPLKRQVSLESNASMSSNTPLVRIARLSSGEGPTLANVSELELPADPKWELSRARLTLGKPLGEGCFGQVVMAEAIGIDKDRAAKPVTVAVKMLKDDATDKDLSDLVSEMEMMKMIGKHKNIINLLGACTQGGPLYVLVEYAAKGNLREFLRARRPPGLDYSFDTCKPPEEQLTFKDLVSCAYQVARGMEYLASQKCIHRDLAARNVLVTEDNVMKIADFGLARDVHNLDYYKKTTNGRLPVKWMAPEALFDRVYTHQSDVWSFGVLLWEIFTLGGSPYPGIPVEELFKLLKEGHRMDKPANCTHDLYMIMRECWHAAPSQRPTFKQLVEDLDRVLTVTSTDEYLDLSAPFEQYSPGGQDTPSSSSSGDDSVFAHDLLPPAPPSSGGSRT
# procedure-text: Ba/F3-FGFR3 (minus IL3) cellular proliferation assay, Alamar Blue
# Assay type: cell-based
# conditions: minus IL3, 384 well
// keep it numeric: no unit symbol after the value

INSERT INTO measurements (compound, observed_result) VALUES
  ('COc1cc(OC)cc(N(CCN2CCOCC2)c2ccc3ncc(-c4ccc(NC(=O)N5CCOCC5)nc4)nc3c2)c1 [Compound 35]', 6.19),
  ('COc1cc(OC)cc(N(CCCNCCCO)c2ccc3ncc(-c4ccnc(C(=O)NCCCCN)c4)nc3c2)c1 [Compound 132]', 5.57),
  ('COc1cc(OC)cc(N(CCO)c2ccc3ncc(C4CCN(C(=O)OC(C)(C)C)CC4)nc3c2)c1 [Compound 185]', 5.01),
  ('COc1cc(OC)cc(N(CCCO)c2ccc3ncc(-c4ccc(F)nc4)nc3c2)c1 [Compound 117]', 6.25),
  ('COc1cc(OC)cc(N(CCNC(C)C)c2ccc3ncc(-c4ccc(N5CCN(C)CC5)nc4)nc3c2)c1 [Compound 170]', 6.16),
  ('COc1cc(OC)cc(N(CCCNCC(F)(F)F)c2ccc3ncc(-c4ccnc(F)c4)nc3c2)c1 [Compound 144]', 5.1);

BAF3-FGFR 3 (MIN IL3) 384 well pIC50 lookup needed for COc1cc(OC)cc(N(CCCO)c2ccc3ncc(-c4ccnc(F)c4)nc3c2)c1 [Compound 142] , thanks.
5.85

BAF3-FGFR 3 (MIN IL3) 384 well pIC50 lookup needed for COc1cc(OC)cc(N(CC2CC2)c2ccc3ncc(-n4cnc(CO)c4)nc3c2)c1 [Compound 105] , thanks.
5.53

BAF3-FGFR 3 (MIN IL3) 384 well pIC50 lookup needed for COc1cc(OC)cc(N(CCCO)c2ccc3ncc(-c4ccnc(C(=O)NCCCN)c4)nc3c2)c1 [Compound 33] , thanks.
5.51

BAF3-FGFR 3 (MIN IL3) 384 well pIC50 lookup needed for COc1cc(OC)cc(N(CC2CC2)c2ccc3ncc(C#Cc4ccncc4)nc3c2)c1 [Compound 23] , thanks.
5.1

----------
# Tested on: Ba/F3-FGFR1-transfected cells in the presence of 10 ng/ml murine IL3
# procedure-text: Ba/F3-FGFR1 (plus IL3) cellular proliferation counterscreen, Alamar Blue
# Type: cell-based
# conditions: Mus musculus; plus IL3, 384 well; read-out: BAF3-FGFR 1 (PLUS IL3) 384 well pIC50 (converted)
# Description: Ba/F3-FGFR1 (Minus IL3 or Plus IL3) (Cellular Proliferation Assay) In a 384 well plate, 100 nl of compound dilution in DMSO was sprayed before adding 50 μl cell culture medium (phenol red free RPMI-1640, 10% FBS, 2 mM L-Glutamine and 50 μg/ml Gentamycin) containing 20000 cells per well of Ba/F3-FGFR1-transfected cells. Cells were put in an incubator at 37° C. and 5% CO2. […]
// reported IC50 for each item listed

Reference set, count: 6
INSERT INTO measurements (compound, observed_result) VALUES
  ('COc1cc(OC)cc(N(CCCNCC(F)(F)F)c2ccc3ncc(C(=O)NCCN4CCOCC4)nc3c2)c1', '> 10 µM'),
  ('COc1cc(OC)cc(N(CCCNCC(=O)O)c2ccc3ncc(-c4ccnc(C(=O)NCCCCN)c4)nc3c2)c1', '> 10 µM'),
  ('CO/N=C(\C)c1cnc2ccc(N(CCO)c3cc(OC)cc(OC)c3)cc2n1', '> 10 µM'),
  ('COc1cc(OC)cc(N(CC2CC2)c2ccc3ncc(-n4ccnc4C)nc3c2)c1', '> 10 µM'),
  ('COc1cc(OC)cc(N(CCO)c2ccc3ncc(-c4cccnc4)nc3c2)c1', '> 10 µM'),
  ('COc1cc(OC)cc(N(CC(O)CO)c2ccc3ncc(-c4ccc(N)nc4)nc3c2)c1 (stereo not shown)', '> 10 µM');

IC50 lookup needed for COc1cc(OC)cc(N(CC2CC2)c2ccc3ncc(-c4nnn[nH]4)nc3c2)c1 , thanks.
> 10 µM

IC50 lookup needed for COc1cc(OC)cc(N(CC2CC2)c2ccc3ncc(-n4cncn4)nc3c2)c1 , thanks.
> 10 µM

IC50 lookup needed for COc1cc(OC)cc(N(CC2CC2)c2ccc3ncc(-n4nccc4C)nc3c2)c1 , thanks.
> 10 µM

IC50 lookup needed for COc1cc(OC)cc(N(CCCO)c2ccc3ncc(-c4ccnc(NC(=O)OC(C)(C)C)c4)nc3c2)c1 , thanks.
> 10 µM

IC50 lookup needed for COc1cc(OC)cc(N(CC2CC2)c2ccc3ncc(-c4cnnn4C)nc3c2)c1 , thanks.
> 10 µM

IC50 lookup needed for COc1cc(OC)cc(N(CCCO)c2ccc3ncc(-c4ccnc(N)c4)nc3c2)c1 , thanks.
> 10 µM

IC50 lookup needed for COc1cc(OC)cc(N(CCN2CCN(C(C)=O)CC2)c2ccc3ncc(-c4ccc(N)nc4)nc3c2)c1 , thanks.
> 10 µM

IC50 lookup needed for COc1cc(OC)cc(N(CCNC(C)C)c2ccc3ncc(-c4ccnc(C(=O)NCCCN)c4)nc3c2)c1 , thanks.
> 10 µM

IC50 lookup needed for COc1cc(OC)cc(N(CC2CC2)c2ccc3ncc(-c4ccc5c(ccn5C)c4)nc3c2)c1 , thanks.
> 10 µM

IC50 lookup needed for COc1cc(OC)cc(N(CCNC(C)C)c2ccc3ncc(N4CCC(CN)CC4)nc3c2)c1 , thanks.
8.51 µM

----------
# Tested on: Ba/F3-Flt3-transfected cells in the presence of 10 ng/ml murine IL3
# procedure-text: Ba/F3-Flt3 (plus IL3) cellular proliferation counterscreen, Alamar Blue
# Type: cell-based
# conditions: Mus musculus; plus IL3, 384 well; read-out: BAF3-FLT3 (PLUS IL3) 384 well pIC50 (converted)
// reported IC50 for each item listed

Reference set, count: 4
INSERT INTO results (smiles_structure, reported_endpoint, observed_result) VALUES
  ('COc1cc(OC)cc(N(CC2CC2)c2ccc3ncc(-c4ccc5c(ccn5C)c4)nc3c2)c1', 'IC50', '> 10 µM'),
  ('COc1cc(OC)cc(N(CC2CC2)c2ccc3ncc(N4CCOCC4)nc3c2)c1', 'IC50', '> 10 µM'),
  ('COc1cc(OC)cc(N(CC2CC2)c2ccc3ncc(-c4ccnc(N5CCN(C)CC5)c4)nc3c2)c1', 'IC50', '7.94 µM'),
  ('COc1cc(OC)cc(N(CC2CC2)c2ccc3ncc(N4CCN(C)CC4)nc3c2)c1', 'IC50', '> 10 µM');

Now, please, on to the next molecule.
IC50 lookup needed for COc1cc(OC)cc(N(CC2CC2)c2ccc3ncc(C#Cc4cncn4C)nc3c2)c1 , thanks.
> 10 µM

----------
// reported IC50 for each item listed
# study-target: FGFR1 (h) (Homo sapiens, UniProt P11362)
# Sequence (P11362 22-822): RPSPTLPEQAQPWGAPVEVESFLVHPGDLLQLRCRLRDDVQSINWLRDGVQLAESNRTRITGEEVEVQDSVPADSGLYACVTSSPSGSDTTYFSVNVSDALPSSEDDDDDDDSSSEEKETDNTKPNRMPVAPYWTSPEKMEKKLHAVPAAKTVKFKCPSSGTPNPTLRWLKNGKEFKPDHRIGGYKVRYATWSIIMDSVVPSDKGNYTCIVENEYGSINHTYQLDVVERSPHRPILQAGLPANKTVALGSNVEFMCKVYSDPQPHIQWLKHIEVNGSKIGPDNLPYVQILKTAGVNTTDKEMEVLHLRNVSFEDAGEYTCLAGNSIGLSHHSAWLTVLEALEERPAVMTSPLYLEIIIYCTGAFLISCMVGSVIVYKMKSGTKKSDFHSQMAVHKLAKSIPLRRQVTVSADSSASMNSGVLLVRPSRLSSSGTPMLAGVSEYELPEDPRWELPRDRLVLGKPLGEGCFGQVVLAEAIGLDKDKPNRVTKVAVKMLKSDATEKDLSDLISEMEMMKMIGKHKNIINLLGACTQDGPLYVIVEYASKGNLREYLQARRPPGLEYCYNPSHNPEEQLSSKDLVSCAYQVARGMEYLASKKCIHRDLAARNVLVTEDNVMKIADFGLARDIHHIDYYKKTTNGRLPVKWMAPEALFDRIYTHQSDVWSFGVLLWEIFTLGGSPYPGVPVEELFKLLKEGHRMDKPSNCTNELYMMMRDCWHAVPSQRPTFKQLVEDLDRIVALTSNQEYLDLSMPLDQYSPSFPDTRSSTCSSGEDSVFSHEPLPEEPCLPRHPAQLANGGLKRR
# procedure-text: FGFR1 (enzymatic assay), TR-FRET
# Format: biochemical
# conditions: read-out: FGFR 1 pIC50 (converted)
State the answer as a number, implicitly in µM.

Reference set, count: 3
INSERT INTO measurements (smiles_structure, units, observed_result) VALUES
  ('COc1cc(OC)cc(N(CC2CC2)c2ccc3ncc(-c4nnn(C)n4)nc3c2)c1', 'µM', 0.309),
  ('COc1cc(OC)cc(N(CC2CC2)c2ccc3ncc(-c4nnc(C)o4)nc3c2)c1', 'µM', 0.302),
  ('CNC(=O)c1cc(-c2cnc3ccc(N(CCN4CCCC4=O)c4cc(OC)cc(OC)c4)cc3n2)ccn1', 'µM', 0.468);

IC50 lookup needed for COc1cc(OC)cc(N(CC2CC2)c2ccc3ncc(-c4ccn[nH]4)nc3c2)c1 , thanks.
0.135

IC50 lookup needed for COc1cc(OC)cc(N(CC2CC2)c2ccc3ncc(-c4cnco4)nc3c2)c1 , thanks.
0.0372

IC50 lookup needed for COc1cc(OC)cc(N(CCO)c2ccc3ncc(N4CCC(CN)CC4)nc3c2)c1 , thanks.
0.0447

IC50 lookup needed for CNCCN(c1cc(OC)cc(OC)c1)c1ccc2ncc(-c3ccc(NC(=O)OC(C)(C)C)nc3)nc2c1 , thanks.
0.0102

IC50 lookup needed for COc1cc(OC)cc(N(CCO)c2ccc3ncc(-n4cnc(CO)c4)nc3c2)c1 , thanks.
0.0151

IC50 lookup needed for COc1cc(OC)cc(N(CC2CC2)c2ccc3ncc(-n4cccn4)nc3c2)c1 , thanks.
1.32

IC50 lookup needed for COc1cc(OC)cc(N(CCNC(C)C)c2ccc3ncc(C(=O)N4CCCCC4)nc3c2)c1 , thanks.
0.229

IC50 lookup needed for COc1cc(OC)cc(N(CC#Cc2ncccn2)c2ccc3ncc(-c4cccnc4)nc3c2)c1 , thanks.
0.0832

IC50 lookup needed for COc1cc(OC)cc(N(CCNC(C)C)c2ccc3ncc(C(=O)N4CCN(C)CC4)nc3c2)c1 , thanks.
0.204

IC50 lookup needed for COc1cc(OC)cc(N(CCCNCC(F)(F)F)c2ccc3ncc(-c4ccnc(Cl)c4)nc3c2)c1 , thanks.
0.115

IC50 lookup needed for COc1cc(OC)cc(N(CCO)c2ccc3ncc(/C(C)=N/OC(C)(C)C)nc3c2)c1 , thanks.
0.603

IC50 lookup needed for COc1cc(OC)cc(N(CCNC(C)C)c2ccc3ncc(-n4cnc(COC(C)=O)c4)nc3c2)c1 , thanks.
0.00166

IC50 lookup needed for COc1cc(OC)cc(N(CCNC(C)C)c2ccc3ncc(N4CCC(CN)CC4)nc3c2)c1 , thanks.
0.00331

IC50 lookup needed for COc1cc(OC)cc(N(CCO)c2ccc3ncc(-c4ccc(N5CCN(C)CC5)nc4)nc3c2)c1 , thanks.
0.00741

IC50 lookup needed for COc1cc(OC)cc(N(CCCNC(C)C)c2ccc3ncc(-c4ccnc(NC(=O)NC(C)C)c4)nc3c2)c1 , thanks.
0.00209

IC50 lookup needed for COc1cc(OC)cc(N(CCCO)c2ccc3ncc(-c4ccnc(NC(=O)OC(C)(C)C)c4)nc3c2)c1 , thanks.
0.182

IC50 lookup needed for COc1cc(OC)cc(N(CCCO)c2ccc3ncc(-c4ccnc(C(=O)NCCCCN)c4)nc3c2)c1 , thanks.
0.0195

IC50 lookup needed for COc1cc(OC)cc(N(CC2CC2)c2ccc3ncc(-c4ccnc(N5CCOCC5)c4)nc3c2)c1 , thanks.
0.589
